The measured values listed here are drawn from patent US20230416248A1.

target under test: BRM (Homo sapiens, UniProt P51531)
Construct: made in house; host or cells: High Five insect cells
Sequence (P51531 whole entry): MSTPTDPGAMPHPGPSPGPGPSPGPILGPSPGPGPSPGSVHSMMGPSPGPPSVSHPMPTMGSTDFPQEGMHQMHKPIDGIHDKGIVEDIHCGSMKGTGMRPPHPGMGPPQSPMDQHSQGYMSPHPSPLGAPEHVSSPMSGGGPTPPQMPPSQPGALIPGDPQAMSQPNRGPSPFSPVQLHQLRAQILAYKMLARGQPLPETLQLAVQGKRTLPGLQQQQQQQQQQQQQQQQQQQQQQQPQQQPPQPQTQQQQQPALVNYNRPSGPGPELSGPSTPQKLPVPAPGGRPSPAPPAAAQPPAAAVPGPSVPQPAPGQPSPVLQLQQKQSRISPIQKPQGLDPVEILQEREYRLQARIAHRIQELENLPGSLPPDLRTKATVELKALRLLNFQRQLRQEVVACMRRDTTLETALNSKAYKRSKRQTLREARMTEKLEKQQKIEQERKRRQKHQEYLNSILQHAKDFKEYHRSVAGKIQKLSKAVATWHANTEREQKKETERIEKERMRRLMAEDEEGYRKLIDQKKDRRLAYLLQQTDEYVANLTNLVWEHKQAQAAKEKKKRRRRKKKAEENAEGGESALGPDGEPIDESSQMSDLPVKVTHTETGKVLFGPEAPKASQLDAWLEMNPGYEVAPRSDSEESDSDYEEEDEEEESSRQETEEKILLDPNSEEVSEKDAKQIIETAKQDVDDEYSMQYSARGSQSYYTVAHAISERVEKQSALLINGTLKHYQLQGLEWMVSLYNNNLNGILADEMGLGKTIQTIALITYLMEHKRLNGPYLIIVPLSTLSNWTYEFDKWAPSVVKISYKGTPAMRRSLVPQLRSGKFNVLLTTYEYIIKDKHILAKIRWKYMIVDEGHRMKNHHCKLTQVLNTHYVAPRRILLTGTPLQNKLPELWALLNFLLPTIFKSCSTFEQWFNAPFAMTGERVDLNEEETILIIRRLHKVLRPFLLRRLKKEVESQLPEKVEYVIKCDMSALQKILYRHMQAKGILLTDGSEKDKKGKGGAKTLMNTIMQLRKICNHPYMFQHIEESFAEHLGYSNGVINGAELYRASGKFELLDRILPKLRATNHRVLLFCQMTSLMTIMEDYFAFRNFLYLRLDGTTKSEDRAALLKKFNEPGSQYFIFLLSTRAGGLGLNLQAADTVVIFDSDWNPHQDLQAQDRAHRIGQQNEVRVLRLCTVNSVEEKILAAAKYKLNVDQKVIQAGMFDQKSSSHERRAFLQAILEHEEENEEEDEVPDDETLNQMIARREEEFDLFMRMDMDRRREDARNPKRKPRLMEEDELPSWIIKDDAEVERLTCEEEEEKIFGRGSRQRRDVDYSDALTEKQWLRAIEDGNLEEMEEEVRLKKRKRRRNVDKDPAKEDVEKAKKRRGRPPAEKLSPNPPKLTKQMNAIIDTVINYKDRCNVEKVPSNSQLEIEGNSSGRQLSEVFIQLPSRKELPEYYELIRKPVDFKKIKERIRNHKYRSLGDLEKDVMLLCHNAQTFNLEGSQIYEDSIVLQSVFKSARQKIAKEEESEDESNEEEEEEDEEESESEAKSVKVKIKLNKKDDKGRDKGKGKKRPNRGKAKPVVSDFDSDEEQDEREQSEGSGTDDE
test: ATPase catalytic activity of BRM, ADP-Glo in vitro biochemical assay
details: ratio BRG1 IC50 / BRM IC50
The label is Met for Ratio* below 20 and Not met for Ratio* equal to or exceeding 20.

O=C(NCc1cc2nc(N3CCOc4cc(F)cnc43)ccc2cn1)c1ccc2c(c1)S(=O)(=O)CCOC2
Not met

For this compound, is Ratio* lower than 20? O=C(NCc1cc2nc(N3CCOc4cc(F)c(C(F)F)nc43)ccc2cn1)c1ccc2c(c1)S(=O)(=O)CCOC2
Not met

Lab log: compare recorded Ratio* with 20; is it strictly lower for COc1cc(C)nc2c1CCCN2c1ccc2cnc(CNC(=O)c3ccc4c(c3)S(=O)(=O)CCOC4)cc2n1 ?
Met

Ratio* strictly < 20 for this compound? O=C(NCc1cc2nc(N3CCc4cc(C(F)F)cnc43)ccc2cn1)c1ccc2c(c1)S(=O)(=O)CCOC2
Met

API: query returns whether the compound falls strictly under 20 in Ratio*. Query: O=C(NCc1cc2nc(N3CCOc4cnc(C5CC5)cc43)ccc2cn1)c1ccc2c(c1)S(=O)(=O)CCOC2
Met

Does the reported Ratio* of O=C(NCc1cc2nc(N3CCCc4ccc(OC5CC5)nc43)ccc2cn1)c1ccc2c(c1)S(=O)(=O)CCOC2 stay below 20?
Not met

Hi there! Is Ratio* for O=C(NCc1cc2nc(N3CCOc4cc(C5CC5)cc(F)c43)ccc2cn1)c1ccc2c(c1)S(=O)(=O)CCOC2 below 20, do you know?
Met

Strictly below 20: is that where Ratio* of O=C(NCc1cc2nc(N3CCOc4cc(C5CC5)ccc43)ccc2nn1)c1ccc2c(c1)S(=O)(=O)CCOC2 sits?
Met
